# System: UO-31
# ASSAY: NCI tumour cell line growth inhibition, 48 h
Activity calls are given as the source filed them. No stated cut-off is given here; in the data, active = GI50 up to about 1.1 µM and inactive = higher.
RECORDED_METRIC: GI50

Worked examples, 9 compounds total:
O=S(O)c1cc(Cl)cc(Cl)c1OCc1ccccc1: > 100 µM (inactive)
CC(O)CCCCC(O)CCC[C@H](O)[C@H]1CCC([C@H]2CCC([C@@H](O)CCCCCCCCCCCCC3=C[C@H](C)OC3=O)O2)O1 (stereo not given in full): 9.44 µM (inactive)
O=C(O)c1cc(CC2Cc3cc4c(cc3C2=O)CCC4)cc2c1CCC2 (stereo not given): > 100 µM (inactive)
CC1(C)O[C@@H]2COC(=O)[C@@H]2O1: > 100 µM (inactive)
Clc1ccc(CCn2cncn2)c(Cl)c1: > 100 µM (inactive)
O=C(CC(C(=O)c1ccco1)c1cccs1)c1cccs1 (stereo not given): 30.7 µM (inactive)
N#Cc1c(NC(=O)CCC(=O)O)ccc2ccccc12: > 100 µM (inactive)
Cc1ccc(S(=O)(=O)N/N=C/c2oc(-c3ccccc3Cl)c(-c3ccccc3Cl)c2[N+](=O)[O-])cc1: 17.8 µM (inactive)
CCCCCCC1=NOC(C(c2cc[nH]c2)N(C)[C@H](C(=O)OC)C(C)C)C1 (stereo not given in full): 61.7 µM (inactive)

Turning now to a further record.
Enter measured GI50, system UO-31, for the compound shown: `CCOC(=O)C1=C(C)OC(=O)[C@@]2(OC)C=C(Cl)[C@@]12C` > 100 µM (inactive)
